Where these numbers come from: ChEMBL document CHEMBL1201862

test system: SF-539; experiment: NCI tumour cell line growth inhibition, 48 h
Counter-ions that a name gives are not always drawn. The source made the active and inactive calls. Rule as the data show it: active = GI50 up to about 1.1 µM and inactive = higher.
Outcome (select one): true = active, false = inactive

Q: // param item: O=C(c1ccccc1)c1c(CC(O)c2ccncc2)n(C(=O)c2ccccc2)c2ccccc12 (stereo not drawn) ; yields the recorded call
Ans: false

Q: // param item: c1ccc2c(c1)N[C@@H]1c3[nH]c4ccccc4c3CC[C@H]21 ; yields the recorded call
Ans: false

Q: // param item: Cc1cccc(C(C)(C)C)c1NC(=O)C(C#N)C1=C(Cl)C(=O)c2ccccc2C1=O (stereo not drawn) ; yields the recorded call
Ans: false

Q: // param item: O=C(CC1(O)C(=O)Nc2ccc([N+](=O)[O-])cc21)c1ccc(Br)cc1 (stereo not drawn) ; yields the recorded call
Ans: false

Q: // param item: COc1cccc2c1C(=O)c1c(O)c3c(c(O)c1C2=O)C[C@](O)(C(=O)CO)CC3OC1CC(N)C(OC2CCCCO2)C(C)O1 (stereo partly drawn) ; yields the recorded call
Ans: true

Q: // param item: COC(=O)c1ccccc1C#CC#Cc1ccccc1C(=O)OC ; yields the recorded call
Ans: false

Q: // param item: CNC1C(OC2C(OC3C(O)C(O)C(O)C(O)C3O)OC(C)C2(O)CO)OC(CO)C(O)C1O.N=C(N)N.NC(=O)O (stereo not drawn) ; yields the recorded call
Ans: false

Q: // param item: COc1ccc(/C=C/C2=NN(c3cccc(S(=O)(=O)O)c3)C3(C2)SCC(=O)N3c2nc3ccccc3s2)cc1 (stereo not drawn) ; yields the recorded call
Ans: false

Q: // param item: CCC1=CC2CN3CCc4c([nH]c5ccccc45)C(C(=O)OC)(C2)C13 (stereo not drawn) ; yields the recorded call
Ans: false

Q: // param item: O=C1c2ccccc2-c2nnc3c(c21)Cc1ccccc1C3 ; yields the recorded call
Ans: false

Q: // param item: CC1OC(OC2C[C@](O)(C(=O)CF)Cc3c(O)c4c(c(O)c32)C(=O)c2ccccc2C4=O)CC(N)C1O (stereo partly drawn) ; yields the recorded call
Ans: true

Q: // param item: CC[C@@]1(O)C(=O)OCc2c1cc1n(c2=O)Cc2cc3c(CN(C)C)c(O)ccc3nc2-1 [TOPOTECAN HYDROCHLORIDE] ; yields the recorded call
Ans: true

Q: // param item: Cc1ccnc2nc(-c3ccc(F)cc3)cc(O)c12 ; yields the recorded call
Ans: false

Q: // param item: COC1/C=C/C(C)C(C(C)C(OC)C(C)CCC(=O)C(C)C(CCC(=O)O)OC)OC(=O)/C=C/C=C(\C)CC(OC)CC2=CC(=O)O[C@@H](C(C)C(OC)CC(OC)/C=C/C(C)C(OC)C1)[C@H]2O (stereo partly drawn) ; yields the recorded call
Ans: true

Q: // param item: COc1ccc(Sc2ccccc2[N+](=O)[O-])cc1 ; yields the recorded call
Ans: false

Q: // param item: CN(C(=O)c1ccco1)C(=S)N1CCN(c2ccccn2)CC1 ; yields the recorded call
Ans: false

Q: // param item: CC1=C2N3C[C@@H](n4c(=O)n(C)c(=O)n43)C23CCC1n1c(=O)n(C)c(=O)n13 ; yields the recorded call
Ans: false

Q: // param item: C/C(Cc1ccc2c(c1)OCO2)=N\N=c1\sc2ccccc2n1C ; yields the recorded call
Ans: false

Q: // param item: c1ccc(-c2c3c(nc4c2CC[C@H]4NC2=NCCN2)[C@@H](NC2=NCCN2)CC3)cc1 ; yields the recorded call
Ans: false

Q: // param item: SC1=NNC2(C(Cl)=N1)c1ccccc1-c1ccccc12 ; yields the recorded call
Ans: false

Q: // param item: COC(=O)/C=C\C(C#N)(C#N)/N=C/c1cc(Br)cs1 ; yields the recorded call
Ans: false

Q: // param item: O=C1CC(O)c2cscc21 (stereo not drawn) ; yields the recorded call
Ans: false

Q: // param item: O=C(/C=C/c1ccc(OCCCOc2ccc(/C=C/C(=O)c3ccc(Cl)cc3)cc2)cc1)c1ccc(Cl)cc1 ; yields the recorded call
Ans: false

Q: // param item: Cc1ccc(Nc2cc(=O)[nH]c(=O)[nH]2)cc1CS ; yields the recorded call
Ans: false

Q: // param item: C/C(=N\Nc1ccc2ccccc2n1)c1ccccc1O ; yields the recorded call
Ans: false

Q: // param item: CCN(CC(O)COc1ccc2c(c1)[n+]([O-])nc(N)[n+]2[O-])C(C)=O (stereo not drawn) ; yields the recorded call
Ans: false

Q: // param item: COC(=O)Nc1nc(=O)c2cc(OC)c(OC)cc2[nH]1 ; yields the recorded call
Ans: false

Q: // param item: Cc1cn(C2CC(O)C(Cn3nncc3Cn3cnc4c(N)ncnc43)O2)c(=O)[nH]c1=O (stereo not drawn) ; yields the recorded call
Ans: false

----------
tested on: EKVX; test: NCI tumour cell line growth inhibition, 48 h
Calls of active or inactive are those of the source. Cut-off read from the data, not from the text of the source: active = GI50 up to about 1.1 µM and inactive = higher. Residues, ends and D or L forms follow the SMILES beside them. *: point of attachment. Fmoc = O=C(OCC1c2ccccc2-c2ccccc21)*; Boc = CC(C)(C)OC(=O)*
Hi there, I'd appreciate the recorded GI50 for every entry that follows.

Q: Assign GI50 to the following record: Cn1c2ccccc2c2cc(-c3ccccc3)c3c(c21)C(=O)c1ccccc1C3=O
Ans: > 10 µM (inactive)

Q: Assign GI50 to the following record: O=C(O)CSCc1cccc2ccccc12
Ans: 19.4 µM (inactive)

Q: Assign GI50 to the following record: Cc1ccc2nnc(NS(=O)(=O)c3cc(C)c(Cl)cc3S)n2n1
Ans: > 100 µM (inactive)

Q: Assign GI50 to the following record: O=C1CCCC/C1=C\c1ccc(Cl)c(Cl)c1
Ans: 45.7 µM (inactive)

Q: Assign GI50 to the following record: CC(C)(C)OC(=O)NCCCCC(NC(=O)C(Cc1c[nH]c2ccccc12)NC(=O)OCC1c2ccccc2-c2ccccc21)C(=O)N1CCCC1C(=O)NCC(N)=O (stereo not drawn) (Fmoc-WK(Boc)PG-NH2; configuration not given here)
Ans: > 100 µM (inactive)

Q: Assign GI50 to the following record: [O-][n+]1c2cc3c(cc2[n+]([O-])c2c(O)cccc21)CN(CCN1CCOCC1)C3
Ans: 14.9 µM (inactive)

Q: Assign GI50 to the following record: C=CCn1c(-c2ccccc2)cs/c1=N\C(P(=O)(O)O)P(=O)(O)O
Ans: > 100 µM (inactive)

Q: Assign GI50 to the following record: CCN(CC(O)COc1ccc2c(c1)[n+]([O-])nc(N)[n+]2[O-])C(C)=O (stereo not drawn)
Ans: > 100 µM (inactive)

----------
tested on: A549; test: NCI tumour cell line growth inhibition, 48 h
The source made the active and inactive calls. Rule as the data show it: active = GI50 up to about 1.1 µM and inactive = higher.
Outcome (select one): active, inactive

Q: // param item: c1ccc(C(=NCCC2CNc3ccccc32)c2ccccc2)cc1 (configuration not stated) ; yields the recorded call
Ans: inactive

Q: // param item: C(=N/NC1=NCCN1)/c1c2ccccc2c(/C=N\NC2=NCCN2)c2ccccc12 ; yields the recorded call
Ans: active

Q: // param item: O=C(Nc1cc(Cl)c(Cl)cc1Cl)C(=O)C1C(=O)NC(=S)NC1=O ; yields the recorded call
Ans: inactive

Q: // param item: Cc1ccc(/C=C/C(=O)c2sc(C(N)=S)nc2C)cc1 ; yields the recorded call
Ans: inactive

Q: // param item: Nc1nc(Cl)cc(NCCO)n1 ; yields the recorded call
Ans: inactive

Q: // param item: CC1=C(C(=O)N[C@@H](CC(C)C)C(=O)O)N2C(=O)[C@@H](NC(=O)[C@@H](N)Cc3ccccc3)[C@H]2SC1 ; yields the recorded call
Ans: inactive

Q: // param item: COC(=O)c1ccccc1C#CC#Cc1ccccc1C(=O)OC ; yields the recorded call
Ans: inactive

Q: // param item: COc1cc(OC)c2c(O)cc(CC(C)O)cc2c1 (configuration not stated) ; yields the recorded call
Ans: inactive

Q: // param item: CC1=CC(C)(C)NN1C1=NS(=O)(=O)c2ccccc2N1C ; yields the recorded call
Ans: inactive

Q: // param item: COc1ccc2c(c1)CCCN2S(=O)(=O)c1ccccc1[N+](=O)[O-] ; yields the recorded call
Ans: inactive

Q: // param item: c1ccc(-c2c(-c3cccs3)[nH]c(-c3cccs3)c2-c2ccccn2)nc1 ; yields the recorded call
Ans: inactive

Q: // param item: COc1ccc(/C=C/C2=NN(c3cccc(S(=O)(=O)O)c3)C3(C2)SCC(=O)N3c2nc3ccccc3s2)cc1 (configuration not stated) ; yields the recorded call
Ans: inactive

Q: // param item: CCCCCCCCCCCCCCCCCC(=O)OCC(COC1OC(COP(=O)(O)O)C(O)C(O)C1O)OC(=O)CCCCCCCCCCCCCCCCC (configuration not stated) ; yields the recorded call
Ans: inactive

Q: // param item: Fc1cccc(Cl)c1C1SCc2nc3ccccc3n21 (configuration not stated) ; yields the recorded call
Ans: inactive

Q: // param item: COc1cc(CNC(=O)CCCCCCCC/C=C/Br)ccc1O ; yields the recorded call
Ans: inactive

Q: // param item: COc1ccc2c(c1)C(=O)C(=O)c1cc(O)c(OC)c(OC)c1-2 ; yields the recorded call
Ans: inactive

Q: // param item: CC(C#N)(c1ccccc1)N(CCc1ccccc1)C(=O)Oc1ccccc1 (configuration not stated) ; yields the recorded call
Ans: inactive

Q: // param item: NC(=O)c1ncn(Cc2ccccc2)c1CNC(N)=S ; yields the recorded call
Ans: inactive

Q: // param item: C[C@@H](c1ccccc1)n1c(N)c(-c2ccccn2)c2ccc([N+](=O)[O-])cc2c1=O ; yields the recorded call
Ans: inactive

Q: // param item: CCOC(=O)/C=C/CCO[Si](C)(C)C(C)(C)C ; yields the recorded call
Ans: inactive

Q: // param item: CC12CCCCC1=[N+]([O-])C(C)(C)N2O (configuration not stated) ; yields the recorded call
Ans: inactive

Q: // param item: [N-]=[N+]=N/C1=C/CCCCC(=O)C1 ; yields the recorded call
Ans: inactive

Q: // param item: COC1/C=C/C(C)C(C(C)C(OC)C(C)CCC(=O)C(C)C(CCC(=O)O)OC)OC(=O)/C=C/C=C(\C)CC(OC)CC2=CC(=O)O[C@@H](C(C)C(OC)CC(OC)/C=C/C(C)C(OC)C1)[C@H]2O (some centres not stated) ; yields the recorded call
Ans: active

Q: // param item: NC(=S)N/N=C1\CCCCC1C(O)(C(F)(F)Cl)C(F)(F)Cl (configuration not stated) ; yields the recorded call
Ans: inactive

Q: // param item: CN1Cc2ccccc2C2(COc3ccccc3C2=O)C1 (configuration not stated) ; yields the recorded call
Ans: inactive

Q: // param item: O=C(CCC(=O)Nc1ccc(Cl)c(Cl)c1)CC(=O)c1ccc2ccccc2c1 ; yields the recorded call
Ans: inactive

Q: // param item: COc1ccc2c(c1OC)C(=O)c1cnccc1C2=O ; yields the recorded call
Ans: inactive

Q: // param item: [N-]=[N+]=NI1OC(C(F)(F)F)(C(F)(F)F)c2ccccc21 ; yields the recorded call
Ans: inactive

Q: // param item: C/C(=C\c1ccccn1)c1ccccn1 ; yields the recorded call
Ans: inactive

Q: // param item: NC(Cc1c[nH]c(I)n1)C(=O)O (configuration not stated) ; yields the recorded call
Ans: inactive

Q: // param item: COC(CN(C=O)[C@@H](c1ccc(Cl)cc1)c1cc2ccccc2o1)OC ; yields the recorded call
Ans: inactive

Q: // param item: O=C1Nc2ccccc2/C1=N/Nc1nc(-c2ccccc2)cs1 ; yields the recorded call
Ans: inactive
